Molecular target: T1, POLA2(1-414)-FG3 (human, UniProt Q14181 1-414)
T1 sequence: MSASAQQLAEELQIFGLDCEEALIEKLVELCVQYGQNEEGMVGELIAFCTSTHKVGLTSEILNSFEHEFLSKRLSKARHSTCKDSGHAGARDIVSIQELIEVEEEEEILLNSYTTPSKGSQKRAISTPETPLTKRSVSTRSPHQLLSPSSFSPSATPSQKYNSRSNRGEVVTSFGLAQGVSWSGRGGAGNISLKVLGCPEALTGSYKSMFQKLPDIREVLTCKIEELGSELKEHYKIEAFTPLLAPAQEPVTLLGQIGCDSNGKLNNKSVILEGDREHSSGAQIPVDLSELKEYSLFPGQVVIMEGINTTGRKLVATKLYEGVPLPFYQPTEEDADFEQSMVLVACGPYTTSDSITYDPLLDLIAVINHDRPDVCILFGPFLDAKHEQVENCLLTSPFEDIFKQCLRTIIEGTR
Test: pull-down
Outcome Measure: binding result

STN1N-Strep (domain or fragment) MQPGSSRCEEETPSLLWGLDPVFLAFAKLYIRDILDMKESRQVPGVFLYNGHPIKQVDVLGTVIGVRERDAFYSYGVDDSTGVINCICWKKLNTESVSAAPSAARELSLTSQLKKLQETIEQKTKIEIGDTIRVRGSIRTYREEREIHATTYYKVDDPVWNIQIARMLELPTIYRKVYDQPFHSSALEKE: binds
STN1N-Strep R135W (domain or fragment) MQPGSSRCEEETPSLLWGLDPVFLAFAKLYIRDILDMKESRQVPGVFLYNGHPIKQVDVLGTVIGVRERDAFYSYGVDDSTGVINCICWKKLNTESVSAAPSAARELSLTSQLKKLQETIEQKTKIEIGDTIRVWGSIRTYREEREIHATTYYKVDDPVWNIQIARMLELPTIYRKVYDQPFHSSALEKE: binds
full length STN1-Strep (STN1F-Strep) (natural protein) MQPGSSRCEEETPSLLWGLDPVFLAFAKLYIRDILDMKESRQVPGVFLYNGHPIKQVDVLGTVIGVRERDAFYSYGVDDSTGVINCICWKKLNTESVSAAPSAARELSLTSQLKKLQETIEQKTKIEIGDTIRVRGSIRTYREEREIHATTYYKVDDPVWNIQIARMLELPTIYRKVYDQPFHSSALEKEEALSNPGALDLPSLTSLLSEKAKEFLMENRVQSFYQQELEMVESLLSLANQPVIHSASSDQVNFKKDTTSKAIHSIFKNAIQLLQEKGLVFQKDDGFDNLYYVTREDKDLHRKIHRIIQQDCQKPNHMEKGCHFLHILACARLSIRPGLSEAVLQQVLELLEDQSDIVSTMEHYYTAF: binds
